# Tested system: T1, ヒト組織因子(TF)(ヒト膀胱癌細胞J82上に発現) (human, UniProt P13726 33-295)
# T1 construct: whole, on cells; Target of the cell ELISA; also called ヒトTF; 抗原
# Experimental protocol: cell ELISA on fixed J82 cells
Assay endpoint: binding result

INSERT INTO results (binder, meas_value) VALUES
  ('H鎖ヒト型化バージョンa/L鎖キメラ抗体 (antibody, V domains shown, Human IgG4 kappa (vector N5KG4P); also called a-ch) VH: QVQLLESGAVLARPGTSVKISCKASGFNIKDYYMHWVKQRPGQGLEWIGGNDPANGHSMYDPKFQGRAKLTAATSASIAYLEFSSLTNEDSAVYYCARDSGYAMDYWGQGTLVTVSS VL: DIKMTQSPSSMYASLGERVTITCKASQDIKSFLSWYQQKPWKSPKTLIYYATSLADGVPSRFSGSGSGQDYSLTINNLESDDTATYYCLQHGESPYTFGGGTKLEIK', 'binds'),
  ('H鎖キメラ/L鎖ヒト型化バージョンb抗体 (antibody, V domains shown, Human IgG4 kappa (vector N5KG4P); also called ch-b) VH: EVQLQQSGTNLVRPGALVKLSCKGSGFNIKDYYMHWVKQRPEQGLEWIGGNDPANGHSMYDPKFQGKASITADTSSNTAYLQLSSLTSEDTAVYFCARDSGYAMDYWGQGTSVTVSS VL: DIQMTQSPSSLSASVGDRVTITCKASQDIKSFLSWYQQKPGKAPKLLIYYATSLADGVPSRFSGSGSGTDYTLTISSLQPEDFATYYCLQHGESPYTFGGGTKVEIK', 'binds'),
  ('H鎖ヒト型化バージョンb3/L鎖ヒト型化バージョンb抗体 (antibody, V domains shown, Human IgG4 kappa (vector N5KG4P); also called b3-b) VH: QVQLLESGAVLARPGTSVKISCKASGFNIKDYYMHWVRQAPGQGLEWIGGNDPANGHSMYDPKFQGRVTITADTSTNTAYMELSSLRSEDTAIYYCARDSGYAMDYWGQGTLVTVSS VL: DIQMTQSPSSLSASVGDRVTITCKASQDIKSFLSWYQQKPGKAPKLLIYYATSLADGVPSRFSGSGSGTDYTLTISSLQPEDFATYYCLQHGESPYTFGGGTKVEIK', 'binds'),
  ('H鎖ヒト型化バージョンg/L鎖ヒト型化バージョンb抗体 (antibody, V domains shown, Human IgG4 kappa (vector N5KG4P); also called g-b) VH: QVQLLESGAVLARPGTSVKISCKASGFNIKDYYMHWVKQRPGQGLEWIGGNDPANGHSMYDPKFQGKATLTADESSSTAYMQLSSLRSEDSAVYSCARDSGYAMDYWGQGTLVTVSS VL: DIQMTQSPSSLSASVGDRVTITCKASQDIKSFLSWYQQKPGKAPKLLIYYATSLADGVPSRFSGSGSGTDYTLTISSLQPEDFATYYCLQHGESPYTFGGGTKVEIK', 'binds'),
  ('H鎖ヒト型化バージョンd/L鎖キメラ抗体 (antibody, V domains shown, Human IgG4 kappa (vector N5KG4P); also called d-ch) VH: QVQLLESGAVLARPGTSVKISCKASGFNIKDYYMHWVKQRPGQGLEWIGGNDPANGHSMYDPKFQGRVTITADESTSTAYMELSSLRSEDSAVYFCARDSGYAMDYWGQGTLVTVSS VL: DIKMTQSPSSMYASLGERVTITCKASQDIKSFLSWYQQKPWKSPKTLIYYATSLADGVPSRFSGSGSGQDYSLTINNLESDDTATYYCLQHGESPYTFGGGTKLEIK', 'binds');
